The entries below come with measured cell viability values attached.
System: myeloid leukemia patient primary cells Pat.6
Test: cell viability (% survival relative to DMSO control); higher = less cytotoxic
Details: 1000 nM; 72 h
// note: answer is a bare numeric in %

Some compounds with recorded cell viability:
>>> reported_result("CN(CCOc1ccc(Cc2sc(O)nc2O)cc1)c1ccccn1")
99
>>> reported_result("CC(=O)Nc1nc(C)c(-c2ccc(Cl)c(S(=O)(=O)NCCO)c2)s1")
72.1
>>> reported_result("Cn1cc(-c2ccncc2)c(-c2ccc(OCc3ccc4ccccc4n3)cc2)n1")
73.5

Lookup result for O=C(/C=C/c1ccc(O)c(O)c1)OCCc1ccccc1 ; measured cell viability: 65.7

Lookup result for C[C@]12C=CC(=O)C=C1CC[C@@H]1[C@@H]2[C@@H](O)C[C@@]2(C)[C@H]1CC[C@]2(O)C(=O)CO ; measured cell viability: 78.5

---

The entries below come with measured cell viability values attached.
System: HEL
Test: cell viability (% survival relative to DMSO control, bortezomib = 0%); higher = less cytotoxic
Settings: 100 nM; 72 h
// note: answer is a bare numeric in %

Lookup result for COC(=O)c1cc2c(C(F)(F)F)cc(-c3ccccc3)cc2n1O [NHI-2] ; measured cell viability: 90.4

Lookup result for Cc1cc2c(C(C)C)c(O)c(O)c(C=O)c2c(O)c1-c1c(C)cc2c(C(C)C)c(O)c(O)c(C=O)c2c1O [Gossypol] ; measured cell viability: 101

Lookup result for CC(C)(C)c1ccc(S(=O)(=O)NCc2ccc(C(=O)Nc3cccnc3)cc2)cc1 [STF-31] ; measured cell viability: 35.3

Lookup result for Cc1c2c(=O)n(-c3ccccc3Cl)[nH]c2cc(=O)n1Cc1ccccn1 ; measured cell viability: 88.2

Lookup result for c1cc(-c2cnn3cc(-c4ccc(OCCN5CCCCC5)cc4)cnc23)ccn1 [Dorsomorphin] ; measured cell viability: 99.4

---

System: HL-60
Assay: cell viability (% survival relative to DMSO control); higher = less cytotoxic
Conditions: 0.01 µM; 72 h; co-treatment: DMSO vehicle
The entries below come with measured cell viability values attached.
// note: answer is a bare numeric in %

>>> reported_result("CCCCCCCC/C=C\\CCCCCCCC(=O)Nc1ccccc1 [Octadec-9-Enoic Acid Phenylamide]")
91.3
>>> reported_result("Cc1c(Cl)cccc1S(=O)(=O)Nc1nc(CC(=O)N2CCN(C)CC2)cs1 [BVT-2733]")
103
>>> reported_result("O=C(NCCN1CCC(n2c(O)nc3ccccc32)CC1)c1cc2cc(F)ccc2[nH]1 [FIPI]")
100
>>> reported_result("O=C([O-])CC(O)(C(=O)[O-])C(O)C(=O)[O-].[K+].[K+].[K+] (stereo not given) [Hydroxycitrate]")
98
>>> reported_result("Cc1[nH]nc(C(F)(F)F)c1Cc1sc2c(c1C(=O)N1C[C@](C)(O)CO1)c(=O)n(C)c(=O)n2C(C)C [AZD3965]")
95.8
>>> reported_result("CCCc1nc(C)c2c(=O)nc(-c3cc(S(=O)(=O)N4CCN(CC)CC4)ccc3OCC)[nH]n12 [Vardenafil]")
99.7
>>> reported_result("COc1ccc2c(NC(=O)Nc3cccc(C(F)(F)F)n3)ccnc2c1")
82.9
>>> reported_result("Cc1cccc(Nc2cc(Cl)nc(SCC(=O)O)n2)c1C [Pirinixic acid]")
94.5

Lookup result for Cc1nc(-c2ccccc2)sc1C(=O)Nc1ccc(S(N)(=O)=O)cc1 ; measured cell viability: 109

Lookup result for CN(Cc1cnc2nc(N)nc(N)c2n1)c1ccc(C(=O)N[C@@H](CCC(=O)O)C(=O)O)cc1 [Methotrexate] ; measured cell viability: 68.4

Lookup result for Cc1cc(C(=O)NNCc2ccccc2)no1 [Isocarboxazid] ; measured cell viability: 101

---

Test system: HL-60
Assay: cell viability (% survival relative to DMSO control); higher = less cytotoxic
Conditions: 1 µM; 72 h; co-treatment: AZD3965 100 nM
quantity.name: cell viability (%)
// note: answer is a bare numeric in %

Lookup result for O=c1c(-c2ccc(O)cc2)coc2cc(O[C@@H]3O[C@H](CO)[C@@H](O)[C@H](O)[C@H]3O)ccc12 [Daidzin] ; measured cell viability: 84.8

Lookup result for C[C@]12C=CC(=O)C=C1CC[C@@H]1[C@@H]2[C@@H](O)C[C@@]2(C)[C@H]1CC[C@]2(O)C(=O)CO [Prednisolone] ; measured cell viability: 103

Lookup result for OC[C@H]1O[C@@H](n2cnc3c2N=CNC[C@H]3O)C[C@@H]1O [Pentostatin] ; measured cell viability: 102

Lookup result for COC(=O)c1cc2c(C(F)(F)F)cc(-c3ccccc3)cc2n1O [NHI-2] ; measured cell viability: 107

---

The entries below come with measured cell viability values attached.
Test system: HEL
Test: cell viability (% survival relative to DMSO control, bortezomib = 0%); higher = less cytotoxic
Conditions: 1 nM; 72 h
Where a name gives a salt, the structure may show the parent alone.
// note: answer is a bare numeric in %

Some molecules with recorded cell viability:
>>> reported_result("Cc1cc(C(=O)NNCc2ccccc2)no1")
112
>>> reported_result("CCN(CCO)CCCC(C)Nc1ccnc2cc(Cl)ccc12 (stereo not drawn) [Hydroxychloroquine sulfate]")
89.5
>>> reported_result("CC(C)CC(=O)N[C@H](C(=O)N[C@H](C(=O)N[C@@H](CC(C)C)[C@@H](O)CC(=O)N[C@@H](C)C(=O)N[C@@H](CC(C)C)[C@@H](O)CC(=O)O)C(C)C)C(C)C")
98.8
>>> reported_result("C[C@H]1c2cccc(O)c2C(=O)C2C(=O)[C@]3(O)C(=O)C(C(N)=O)C(=O)[C@@H](N(C)C)[C@@H]3[C@@H](O)[C@@H]21 (stereo partly drawn)")
120
>>> reported_result("COC(=O)c1cc2c(C(F)(F)F)cc(-c3ccccc3)cc2n1O")
83.5

Lookup result for Cc1nc(-c2ccccc2)sc1C(=O)Nc1ccc(S(N)(=O)=O)cc1 ; measured cell viability: 110

Lookup result for CCN(CC)C(=S)SSC(=S)N(CC)CC ; measured cell viability: 101

Lookup result for C[C@]12C=CC(=O)C=C1CC[C@@H]1[C@@H]2[C@@H](O)C[C@@]2(C)[C@H]1CC[C@]2(O)C(=O)CO ; measured cell viability: 105

---

System: SHI-1
Assay: cell viability (% survival relative to DMSO control, bortezomib = 0%); higher = less cytotoxic
Conditions: 10000 nM; 72 h
cell viability strictly less than 80% = T. Otherwise F.

The examples below pair each entry with its known result.
>>> cat("OC[C@H]1NC[C@H](O)[C@@H](O)[C@@H]1O")
"F"
>>> cat("CN1CCN(CCCN2c3ccccc3Sc3ccc(C(F)(F)F)cc32)CC1")
"T"

Hello, is cell viability of the following compound strictly smaller than 80%? Cc1cc(C(=O)NNCc2ccccc2)no1 F

Hello, is cell viability of the following compound strictly smaller than 80%? CO[C@H]1C[C@@H]2CC[C@@H](C)[C@@](O)(O2)C(=O)C(=O)N2CCCC[C@H]2C(=O)O[C@H]([C@H](C)C[C@@H]2CC[C@@H](OC(=O)C(C)(CO)CO)[C@H](OC)C2)CC(=O)[C@H](C)/C=C(\C)[C@@H](O)[C@@H](OC)C(=O)[C@H](C)C[C@H](C)/C=C/C=C/C=C/1C T

Hello, is cell viability of the following compound strictly smaller than 80%? CN(CCCOc1ccc(Cc2ccccc2)cc1)CCC(=O)O F

Hello, is cell viability of the following compound strictly smaller than 80%? CN(Cc1cnc2nc(N)nc(N)c2n1)c1ccc(C(=O)N[C@@H](CCC(=O)O)C(=O)O)cc1 [Methotrexate] T

Hello, is cell viability of the following compound strictly smaller than 80%? CCCCCCCC/C=C\CCCCCCCC(=O)Nc1ccccc1 [Octadec-9-Enoic Acid Phenylamide] F

Hello, is cell viability of the following compound strictly smaller than 80%? O=C(/C=C/c1ccc(O)c(O)c1)OCCc1ccccc1 T

Hello, is cell viability of the following compound strictly smaller than 80%? C[C@H]1c2cccc(O)c2C(=O)C2C(=O)[C@]3(O)C(=O)C(C(N)=O)C(=O)[C@@H](N(C)C)[C@@H]3[C@@H](O)[C@@H]21 (stereo not given in full) F

Hello, is cell viability of the following compound strictly smaller than 80%? O=c1c(-c2ccc(O)cc2)coc2cc(O[C@@H]3O[C@H](CO)[C@@H](O)[C@H](O)[C@H]3O)ccc12 F

Hello, is cell viability of the following compound strictly smaller than 80%? Cc1cc2c(C(C)C)c(O)c(O)c(C=O)c2c(O)c1-c1c(C)cc2c(C(C)C)c(O)c(O)c(C=O)c2c1O T

Hello, is cell viability of the following compound strictly smaller than 80%? O=C1C(SCCO)=C(SCCO)C(=O)c2ccccc21 T

Hello, is cell viability of the following compound strictly smaller than 80%? CN(CCOc1ccc(Cc2sc(O)nc2O)cc1)c1ccccn1 F

Hello, is cell viability of the following compound strictly smaller than 80%? OC[C@H]1O[C@@H](n2cnc3c2N=CNC[C@H]3O)C[C@@H]1O F
